Tested on: benzodiazepine binding site of α1-containing GABA receptors
experimental.details: In vivo [3H]Ro 15-1788 binding, cerebellum
condition.notes: male, Swiss-Webster, mouse, cerebellum, intraperitoneal, 1 mg/kg, probe [3H]Ro 15-1788
property.label: concentration at 30 min (nM)
Write the value in nM as a bare number.

Value lookup for concentration at 30 min; key = CCOC(=O)c1ncn2c1[C@@H]1CCCN1C(=O)c1cc(OC)ccc1-2 [FG 8094]
7.8

* * *

assayed.system: α5β3γ2 (Homo sapiens, UniProt P18507+P31644)
Construct: expressed in transfected cells
Sequence (P31644 32-462, one chain of several): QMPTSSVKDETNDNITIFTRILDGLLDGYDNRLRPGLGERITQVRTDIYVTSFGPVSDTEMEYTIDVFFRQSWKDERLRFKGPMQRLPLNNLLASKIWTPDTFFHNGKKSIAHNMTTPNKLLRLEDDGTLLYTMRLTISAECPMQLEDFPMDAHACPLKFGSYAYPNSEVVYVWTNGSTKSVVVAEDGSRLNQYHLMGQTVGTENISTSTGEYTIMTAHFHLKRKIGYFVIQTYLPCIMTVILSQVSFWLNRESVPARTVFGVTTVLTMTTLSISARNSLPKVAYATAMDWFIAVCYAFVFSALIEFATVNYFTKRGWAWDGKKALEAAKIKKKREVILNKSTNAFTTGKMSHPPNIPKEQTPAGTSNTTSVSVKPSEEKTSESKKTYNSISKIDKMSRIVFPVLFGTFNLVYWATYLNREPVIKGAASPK
experimental.details: Radioligand binding, membranes of stably transfected cells
condition.notes: [3H]Ro 15-1788 at twice Kd; mean±SEM, 3-6 determinations; read-out: Ki α5β3γ2
property.label: Ki (nM)
Write the value in nM as a bare number.

Value lookup for Ki; key = CCOC(=O)c1ncn2c1CN(C)C(=O)c1cc(N=[N+]=[N-])ccc1-2 [Ro 15-4513, reference compound]
0.24

* * *

assayed.system: α2β3γ2 (Homo sapiens, UniProt P18507+P47869)
Sequence (P47869 29-451): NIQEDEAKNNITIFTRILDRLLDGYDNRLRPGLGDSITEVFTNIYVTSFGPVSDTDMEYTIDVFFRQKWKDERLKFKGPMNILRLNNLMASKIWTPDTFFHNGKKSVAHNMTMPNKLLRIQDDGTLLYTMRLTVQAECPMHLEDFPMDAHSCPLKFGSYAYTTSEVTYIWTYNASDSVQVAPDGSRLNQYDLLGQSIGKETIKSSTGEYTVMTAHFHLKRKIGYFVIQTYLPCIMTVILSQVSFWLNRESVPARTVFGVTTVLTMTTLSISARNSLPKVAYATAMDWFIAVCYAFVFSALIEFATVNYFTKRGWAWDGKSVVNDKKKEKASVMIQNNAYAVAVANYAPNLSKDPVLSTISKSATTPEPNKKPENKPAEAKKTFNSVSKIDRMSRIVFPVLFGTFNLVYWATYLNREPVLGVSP
Sequence (P28472 26-473 partner): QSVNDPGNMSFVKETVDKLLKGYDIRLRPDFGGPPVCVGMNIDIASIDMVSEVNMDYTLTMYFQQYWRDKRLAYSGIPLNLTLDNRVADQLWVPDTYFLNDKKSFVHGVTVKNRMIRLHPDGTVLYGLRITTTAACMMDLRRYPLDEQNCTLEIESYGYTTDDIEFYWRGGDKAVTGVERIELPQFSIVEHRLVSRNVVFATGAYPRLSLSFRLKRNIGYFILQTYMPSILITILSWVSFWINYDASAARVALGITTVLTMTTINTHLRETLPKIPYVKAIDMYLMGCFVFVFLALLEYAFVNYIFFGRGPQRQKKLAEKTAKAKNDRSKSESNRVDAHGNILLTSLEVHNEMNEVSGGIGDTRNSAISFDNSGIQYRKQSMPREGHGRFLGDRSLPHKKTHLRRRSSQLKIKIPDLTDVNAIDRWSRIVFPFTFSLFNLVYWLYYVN
Sequence (P18507 40-467 isoform P18507-1 limits assumed): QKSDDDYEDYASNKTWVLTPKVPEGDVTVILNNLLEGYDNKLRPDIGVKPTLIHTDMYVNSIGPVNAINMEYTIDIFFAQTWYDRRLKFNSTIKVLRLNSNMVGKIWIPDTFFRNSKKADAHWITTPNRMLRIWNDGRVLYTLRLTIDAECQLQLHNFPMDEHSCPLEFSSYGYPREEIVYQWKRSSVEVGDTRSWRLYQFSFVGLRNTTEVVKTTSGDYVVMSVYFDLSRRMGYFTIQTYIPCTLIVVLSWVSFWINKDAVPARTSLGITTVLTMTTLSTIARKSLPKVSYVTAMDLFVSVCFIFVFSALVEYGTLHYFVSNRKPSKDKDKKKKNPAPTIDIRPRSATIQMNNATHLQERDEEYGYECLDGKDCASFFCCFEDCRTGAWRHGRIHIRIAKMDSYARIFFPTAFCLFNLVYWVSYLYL
experimental.details: Radioligand binding, membranes of stably transfected cells
property.label: pKi
# pKi is unitless: minus log10 of the molar concentration; print number only

Value lookup for pKi; key = CCOC(=O)c1ncn2c1[C@@H]1CCCN1C(=O)c1cc(OC)ccc1-2
7.56

* * *

assayed.system: α3β3γ2 (Homo sapiens, UniProt P18507+P34903)
Construct: expressed in transfected cells
Sequence (P34903 29-492, one chain of several): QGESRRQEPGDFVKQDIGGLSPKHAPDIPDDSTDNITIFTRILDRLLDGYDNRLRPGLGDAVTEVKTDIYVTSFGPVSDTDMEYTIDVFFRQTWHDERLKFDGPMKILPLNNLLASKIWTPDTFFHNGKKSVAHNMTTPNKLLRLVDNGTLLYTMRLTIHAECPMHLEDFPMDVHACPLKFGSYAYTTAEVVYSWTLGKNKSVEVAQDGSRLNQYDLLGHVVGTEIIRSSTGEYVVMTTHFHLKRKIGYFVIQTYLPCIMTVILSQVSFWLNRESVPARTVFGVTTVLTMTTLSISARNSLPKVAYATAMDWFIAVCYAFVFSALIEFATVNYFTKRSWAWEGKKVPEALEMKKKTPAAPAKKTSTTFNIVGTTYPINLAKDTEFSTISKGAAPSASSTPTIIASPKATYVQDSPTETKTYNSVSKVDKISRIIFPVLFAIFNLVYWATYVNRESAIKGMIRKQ
experimental.details: Radioligand binding, membranes of stably transfected cells
property.label: pKi
# pKi is unitless: minus log10 of the molar concentration; print number only

Value lookup for pKi; key = CCOC(=O)c1ncn2c1[C@@H]1CCCN1C(=O)c1cc(OC)ccc1-2 [FG 8094]
7.61

* * *

assayed.system: α3β3γ2 (Homo sapiens, UniProt P18507+P34903)
Construct: expressed in transfected cells
experimental.details: Radioligand binding, membranes of stably transfected cells
condition.notes: [3H]Ro 15-1788 at twice Kd; mean±SEM, 3-6 determinations; read-out: Ki α3β3γ2
property.label: Ki (nM)
Write the value in nM as a bare number.

Value lookup for Ki; key = CCOC(=O)c1ncn2c1CN(C)C(=O)c1cc(N=[N+]=[N-])ccc1-2 [Ro 15-4513, reference compound]
1.28

* * *

assayed.system: α6β3γ2 (Homo sapiens, UniProt P18507+Q16445)
Construct: expressed in transfected cells
Sequence (Q16445 20-453): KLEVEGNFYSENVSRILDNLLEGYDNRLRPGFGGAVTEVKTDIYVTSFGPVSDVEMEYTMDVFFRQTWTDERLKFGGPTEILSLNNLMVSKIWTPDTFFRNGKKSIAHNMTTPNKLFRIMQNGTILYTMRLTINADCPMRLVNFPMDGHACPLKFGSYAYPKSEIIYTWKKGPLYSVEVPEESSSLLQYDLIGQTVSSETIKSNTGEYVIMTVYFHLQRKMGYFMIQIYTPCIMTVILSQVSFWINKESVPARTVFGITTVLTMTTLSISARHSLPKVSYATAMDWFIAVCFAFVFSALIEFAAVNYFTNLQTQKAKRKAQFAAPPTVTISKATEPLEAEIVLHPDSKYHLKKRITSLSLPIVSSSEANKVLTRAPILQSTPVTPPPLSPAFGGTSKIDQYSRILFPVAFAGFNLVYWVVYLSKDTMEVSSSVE
Sequence (P28472 26-473 partner): as the sequence (P28472 26-473 partner) above
Sequence (P18507 40-467 isoform P18507-1 limits assumed): as the sequence (P18507 40-467 isoform P18507-1 limits assumed) above
experimental.details: Radioligand binding, membranes of stably transfected cells
property.label: Ki
Give the figure together with its unit, number first.

Value lookup for Ki; key = CCOC(=O)c1ncn2c1[C@@H]1CCCN1C(=O)c1cc(OC)ccc1-2
83.2 nM

* * *

Tested on: benzodiazepine binding site of α2/3-containing GABA receptors
experimental.details: In vivo [3H]Ro 15-1788 binding, spinal cord
condition.notes: male, Swiss-Webster, mouse, in vivo, 1 mg/kg
property.label: concentration at 30 min (nM)
Write the value in nM as a bare number.

Value lookup for concentration at 30 min; key = CCOC(=O)c1ncn2c1[C@@H]1CCCN1C(=O)c1cc(OC)ccc1-2
13.2
